- System: OVCAR-5 ovarian
- ASSAY PROCEDURE: NCI-60 one-dose screen, 48 h
- ASSAY CONTEXT: 10 µM unless noted
About 83,000 compounds went through this panel and 20% of them were active in at least one assay; those are over-represented in the sample as a whole. Calls of active or inactive are those of the source. The calls were made as follows: active = growth percent below 10; inactive = the rest.
Classes used: class 1 = active, class 0 = inactive

# QUERY SMILES, SYSTEM TESTED, CLASS NAME
rows = [
    ("CCNCCNc1cc(C2CCCCC2)c(C#N)c2nc3ccccc3n12", "OVCAR-5 ovarian", "class 0"),
    ("Nc1nc2ccccc2c2c(=O)c3cccc(Cl)c3sc12", "OVCAR-5 ovarian", "class 0"),
    ("CC(C)=CC(=O)OCC(=O)O[C@@H]1C[C@]2(C(C)C)O[C@@]1(C)[C@@H]1CC[C@@H](C)[C@H]1[C@@H]2OC(=O)/C=C/c1ccccc1", "OVCAR-5 ovarian", "class 0"),
    ("COC12C=C/C(=C(/C(=O)OCc3ccncc3)C(=O)CCCCCCCCC3(OC)C=C/C(=C(/C(=O)OCc4ccncc4)C(=O)CCCCCCCC1)O3)O2", "OVCAR-5 ovarian", "class 1"),
    ("Cc1cc(S(=O)(=O)/N=C(\\N)n2nc(C)c(C)c2C)c(SCc2ccccc2)cc1Cl", "OVCAR-5 ovarian", "class 0"),
    ("NC(=O)c1cc(I)ccc1NC(=O)/C=C/c1ccccc1", "OVCAR-5 ovarian", "class 0"),
    ("N#Cc1nc(-c2ccc(Cl)cc2)oc1S(=O)(=O)N1CCN(c2ccc(F)cc2)CC1", "OVCAR-5 ovarian", "class 0"),
    ("COc1ccc(-c2nc3cc(C(=O)NCc4ccccc4)ccc3n2C2CCCCC2)cc1", "OVCAR-5 ovarian", "class 0"),
    ("CCOC(=O)n1cc(-c2nonc2-c2cn(C(=O)OCC)c3ccc(Br)cc23)c2ccccc21", "OVCAR-5 ovarian", "class 0"),
]

###

- System: KM12 colon
- ASSAY PROCEDURE: NCI-60 one-dose screen, 48 h (100 = growth as untreated, 0 = no growth, -100 = all killed)
- ASSAY CONTEXT: 10 µM unless noted
Compounds without any hit were thinned out: in the full panel of roughly 83,000, 20% have a hit.
Tag: Fulfilled if measured growth is not below 80%, Not fulfilled if it is.

# QUERY SMILES, CLASS NAME
measured = [
    ("Fc1cc2c(cc1Cl)N(c1ncnc3ccc(-c4ccc5n[nH]nc5c4)cc13)CC2", "Fulfilled"),
    ("N#Cc1c(-c2ccc(Cl)cc2)c(C#N)c2c(C#N)c(N)nn2c1N", "Fulfilled"),
    ("O=c1[nH]c(Cc2nc3ccccc3s2)nc2cc(Br)ccc12", "Not fulfilled"),
    ("C=C(CBr)[C@@H]1CC[C@]2(C(=O)O)CC[C@]3(C)[C@H](CC[C@@H]4[C@@]5(C)CCC(=O)C(C)(C)[C@@H]5CC[C@]43C)[C@@H]12", "Not fulfilled"),
]

###

- Tested on: NCI-H322M lung
- ASSAY PROCEDURE: NCI-60 one-dose screen, 48 h (100 = growth as untreated, 0 = no growth, -100 = all killed)
- ASSAY CONTEXT: 10 µM unless noted
Compounds without any hit were thinned out: in the full panel of roughly 83,000, 20% have a hit.
ASSAY METRIC: growth (%)

# COMPOUND, VALUE OBSERVED
rows = [
    ("O=C(NNC(=O)c1ccc(NC(=O)c2ccccn2)cc1)Nc1ccc([N+](=O)[O-])cc1", 95.7),
    ("CSc1nc(N)c(NS(=O)(=O)c2ccc(C(C)=O)cc2)c(=O)[nH]1", 100),
    ("O=C(Nc1nc(-c2ccc(Cl)cc2)nc2c1sc(=S)n2-c1ccccc1)C(F)(F)F", 49.4),
    ("COC(=O)CC[C@@H]1O[C@@H](c2cccc(C(F)(F)F)c2)[C@@H](O)[C@H]1O", 103),
    ("O=C(OC(CO)C(=O)NC12CC3CC(CC(C3)C1)C2)c1ccc(Cl)cc1 (stereo not drawn)", 102),
    ("CCCCn1c(=O)[nH]c(N)c([C@@H]2c3c([nH]c(=O)n(CCCC)c3=O)Oc3ccc4ccccc4c32)c1=O", 74.9),
    ("Cn1cc(-c2csc(-c3cn(C(=O)OC(C)(C)C)c4ccc(Br)cc34)n2)c2ccnc(Cl)c21", 85.3),
    ("Clc1ccc2c(NC3CCC(N4CCOCC4)CC3)ccnc2c1 (stereo not drawn)", 101),
    ("CCn1c(SCC(=O)N/N=C(\\C)c2ccc(Cl)cc2)nc2c1c(=O)n(C)c(=O)n2C", 96.9),
    ("COc1cccc(CNc2ccc3ncnc(Nc4ccc(F)c(Cl)c4)c3c2)c1", 34.1),
    ("COC(=O)[C@@H](CCCCNC(=O)[C@]12CCC(C)(C)C[C@@H]1C1=CC[C@@H]3[C@@]4(C)C/C(=C/c5ccco5)C(=O)C(C)(C)[C@@H]4CC[C@@]3(C)[C@]1(C)CC2)NC(=O)[C@]12CCC(C)(C)C[C@@H]1C1=CC[C@@H]3[C@@]4(C)C/C(=C/c5ccco5)C(=O)C(C)(C)[C@@H]4CC[C@@]3(C)[C@]1(C)CC2", 93.9),
    ("CSc1nnc(-c2cc3c([nH]c4ccccc43)c(-c3cccc(O)c3)n2)n1-c1ccccc1", 43.3),
    ("Cn1cc(-c2ccc3nc(-c4ccc(CC(=O)ONc5cc(C(C)(C)C)on5)cc4)cnc3c2)cn1", 22.8),
    ("O=C(Nc1ccccc1)Nc1ncnc2c1ncn2-c1ccc(Cl)cc1", 79.3),
    ("O=C(Nc1ccc(Oc2cccc(Cl)c2)c(Cl)c1)c1cccnc1", 47.1),
    ("COc1ccc2c(c1)CC[C@H](O)/C2=C/c1cc(OC)c(OC)c(OC)c1", 60.5),
    ("CCc1ccc(CCCC(=O)O)cc1", 101),
    ("CCSc1nc2scc(C)c2c(=O)[nH]1", 104),
]

Origin of measurements: PubChem BioAssay (NCI)
